- MEASURED_TARGET: Aromatase (Homo sapiens) (UniProt P11511)
- Sequence (P11511 whole entry, looked up): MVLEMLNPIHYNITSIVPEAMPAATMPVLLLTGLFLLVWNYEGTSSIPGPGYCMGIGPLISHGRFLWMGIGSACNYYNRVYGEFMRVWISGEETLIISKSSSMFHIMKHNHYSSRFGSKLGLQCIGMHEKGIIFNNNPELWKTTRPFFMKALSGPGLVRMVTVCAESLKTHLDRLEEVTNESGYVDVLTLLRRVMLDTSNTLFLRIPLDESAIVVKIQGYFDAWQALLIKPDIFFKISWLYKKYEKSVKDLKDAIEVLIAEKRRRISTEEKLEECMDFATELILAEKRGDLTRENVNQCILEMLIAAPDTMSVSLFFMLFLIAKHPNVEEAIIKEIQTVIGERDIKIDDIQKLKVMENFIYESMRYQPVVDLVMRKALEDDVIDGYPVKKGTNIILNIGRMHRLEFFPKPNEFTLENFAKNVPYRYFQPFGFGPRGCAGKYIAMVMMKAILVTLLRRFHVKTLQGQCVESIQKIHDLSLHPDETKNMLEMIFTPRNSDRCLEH
- MEASUREMENT_NOTES: qHTS assay to identify aromatase inhibitors (AID 743083); also: nearly all actives have a fitted effect of over 55% in size
- EXPERIMENTAL_PARAMETERS: MCF-7 aro ERE, testosterone-driven ERE luciferase, 24 h; series mostly up to 70.3 µM
Results filed as inconclusive are left out. Calls of active or inactive are those of the source. Calls follow the shape of the dose curve; as a rule, active = well fitted inhibition curve with a large enough effect in the repeat runs; inconclusive = weak or mixed curves; inactive = no such curve, though single readings can be large or run the other way.
Give your call using only these classes: TRUE (active), FALSE (inactive)

# count of solved cases: 5
>>> print(df.to_string())
                                        mol  class_assignment
0                        O=c1[nH]sc2ccccc12              TRUE
1                       Cc1cc(O)c2ccccc2c1O             FALSE
2           CCN(C(=O)N(CC)c1ccccc1)c1ccccc1             FALSE
3                Cc1cc(N)c(S(=O)(=O)O)cc1Cl             FALSE
4  CCc1cc(SCc2sc(-c3ccc(C(F)(F)F)cc3)nc2CN2CCN(c3ccc(OC)cc3)CC2)ccc1OCC(=O)O              TRUE

*Q* Assay outcome for CCCCCOC(=O)CCCC : what was it?
*A* FALSE

*Q* Per the records of this test, what outcome belongs to Clc1ccc2nsnc2c1NC1=NCCN1 ?
*A* FALSE

*Q* Assay result, entry CCCN(CCC)c1c([N+](=O)[O-])cc(C(F)(F)F)c(N)c1[N+](=O)[O-] — outcome?
*A* TRUE

*Q* Identify the outcome logged in this assay for the molecule shown: OCCN1CCN(CC/C=C2/c3ccccc3Sc3ccc(C(F)(F)F)cc32)CC1
*A* FALSE

*Q* Outcome logged for CCCCCCCCCCCCCCCS(=O)(=O)Oc1ccccc1 in this assay:
*A* FALSE

*Q* Look up the recorded call for Oc1cccc2cc3cccc(O)c3c(O)c12 in this test.
*A* FALSE

*Q* Record lookup: outcome of this test for CC(C)(C)CC(C)(C)c1ccc(O)c(Cc2ccc(Cl)cc2Cl)c1 ?
*A* FALSE

---

- MEASUREMENT_NOTES: qHTS RealTime-Glo MT Cell Viability Assay in HEK293 cells - 8 hour (AID 1224887); also: nearly all actives have a fitted effect of over 50% in size
- EXPERIMENTAL_PARAMETERS: RealTime-Glo luminescence; series mostly up to 76.8 µM
Records with an inconclusive call do not appear. Active and inactive are the calls of the source. Calls follow the shape of the dose curve; as a rule, active = well fitted cell-killing curve with a large enough effect in the repeat runs; inconclusive = weak or mixed curves, or effect the other way; inactive = flat fitted curve, though single readings scatter.
// one of active, inactive, no free text

                                   compound  class_assignment
0  Cc1oc(-c2ccccc2)nc1CCC(=O)c1ccc(CC2SC(=O)NC2=O)cc1 (centres undefined)          inactive
1  O=C(OCC(COC(=O)c1ccccc1)(COC(=O)c1ccccc1)COC(=O)c1ccccc1)c1ccccc1            active
2  CC(C)(C)CC(C)(C)c1ccc(O)c(Cc2ccc(Cl)cc2Cl)c1            active
3             CCCCCCCCCCCCCCCCCC[N+](C)(C)C            active
4  O=C(c1ccc(F)cc1)C1CCN(CCn2c(=O)[nH]c3ccccc3c2=O)CC1            active

*Q* Tell me the assay call for CCOC(=O)/C=C(C)/C=C/C=C(C)/C=C/c1c(C)cc(OC)c(C)c1C please.
*A* inactive

*Q* Given CCCCN1CCCC[C@H]1C(=O)Nc1c(C)cccc1C , state the outcome it received in this test.
*A* inactive

*Q* # outcome recorded in this test, key = CNC(=O)c1ccccc1
*A* inactive
